Value source: ChEMBL document CHEMBL1142248

As shown below, each of these compounds has a reported pKi value.
- subject_of_test: Prostaglandin E2 receptor EP4 subtype (Homo sapiens, UniProt P35408)
- Sequence (P35408 whole entry): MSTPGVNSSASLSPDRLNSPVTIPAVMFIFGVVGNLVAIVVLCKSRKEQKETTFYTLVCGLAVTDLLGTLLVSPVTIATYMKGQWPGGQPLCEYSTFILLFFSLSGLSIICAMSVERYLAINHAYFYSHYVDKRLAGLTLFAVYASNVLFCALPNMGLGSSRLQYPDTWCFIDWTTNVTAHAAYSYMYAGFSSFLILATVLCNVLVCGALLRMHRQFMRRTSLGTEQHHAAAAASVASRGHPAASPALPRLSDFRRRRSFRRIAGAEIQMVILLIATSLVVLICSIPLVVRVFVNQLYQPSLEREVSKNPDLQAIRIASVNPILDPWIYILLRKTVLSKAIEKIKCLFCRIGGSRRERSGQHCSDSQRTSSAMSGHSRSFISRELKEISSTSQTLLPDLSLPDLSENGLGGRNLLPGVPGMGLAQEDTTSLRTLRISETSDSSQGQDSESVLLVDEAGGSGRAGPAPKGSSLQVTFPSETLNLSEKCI
- test_method_notes: Binding affinity to human EP4 receptor expressed in HEK293 cells in presence of 10% human serum
- Type: cell-based
pKi: −log10 of the molar value.

>>> df
                                smiles_repr                           subject_of_test  result
0  CCOc1c2c(c(OCC)c3ccccc13)C(=O)N(c1ccc(CS(=O)(=O)NC(=O)CCc3ccsc3)cc1)C2  Prostaglandin E2 receptor EP4 subtype (Homo sapiens, UniProt P35408)  < 5.40
1  CCOc1c2c(c(OCC)c3ccccc13)C(=O)N(c1ccc(CS(=O)(=O)NC(=O)C(c3ccccc3)c3ccccc3)cc1)C2  Prostaglandin E2 receptor EP4 subtype (Homo sapiens, UniProt P35408)  < 5.40

Continue with the next compound.
Which pKi reading was recorded for the compound `CCOc1c2c(c(OCC)c3ccccc13)C(=O)N(c1ccc(CS(=O)(=O)NC(=O)Cc3ccccc3)cc1)C2` ?
< 5.40
